Origin of values: ChEMBL document CHEMBL1125793

system_name: Angiotensin II receptor (Rattus norvegicus, UniProt P29089+P25095+P35351)
assay: Binding affinity against Angiotensin II receptor, from rat adrenal gland
Assay type: tissue-based
endpoint: IC50 (µM)
Response body: numeric value in µM, unit text excluded.

O=C(O)[C@@H]1Cc2c(ncn2CCC2CCCCC2)CN1C(=O)C(c1ccccc1)c1ccccc1; 0.24
COc1ccc(Cn2cnc3c2C[C@@H](C(=O)O)N(C(=O)CC(c2ccccc2)c2ccccc2)C3)cc1C; 4.2
CN(C(=O)N1Cc2ncn(Cc3ccccc3)c2CC1C(=O)O)c1ccccc1 (stereo in doubt; 3); 1.2
O=C(O)[C@@H]1Cc2c(ncn2Cc2ccc(F)cc2)CN1C(=O)C(c1ccccc1)c1ccccc1; 0.45
Cc1cc(Cn2cnc3c2C[C@H](C(=O)O)N(C(=O)C(c2ccccc2)c2ccccc2)C3)ccc1N(C)C.O; 0.097

GET /value?item= COc1ccc(Cn2cnc3c2C[C@@H](C(=O)O)N(C(=O)C2(c4ccccc4)CCCCC2)C3)cc1C &field=IC50 returns 0.11

Consider O=C(O)C1Cc2c(ncn2Cc2ccccc2)CN1C(=O)CCc1ccccc1 (stereo not given) . Its measured IC50 is 13

Entry O=C(C(=O)N1Cc2ncn(Cc3ccccc3)c2CC1C(=O)O)c1ccccc1 (stereo not given) , IC50 reported as 2.4

The compound listed as O=C(O)[C@@H]1Cc2c(ncn2Cc2cccc(C(F)(F)F)c2)CN1C(=O)C(c1ccccc1)c1ccccc1 shows IC50 equal to 0.46

Entry under test: O=C(C(c1ccccc1)C1CCCC1)N1Cc2ncn(Cc3ccccc3)c2CC1CO (stereo not given) . Its IC50 was 6.7

COc1ccc(Cn2cnc3c2C[C@@H](C(=O)O)N(C(=O)CC2CCCCC2)C3)cc1C has a reported IC50 of 2

# IC50 (compound: Cc1ccc(S(=O)(=O)N2Cc3ncn(Cc4ccccc4)c3CC2C(=O)O)cc1 (stereo not given) ) is 4.2

Please fill in: IC50 reported for Cc1cccc(Cn2cnc3c2C[C@@H](C(=O)O)N(C(=O)C(c2ccccc2)c2ccccc2)C3)c1 = 0.15

The compound listed as COc1ccc(Cn2cnc3c2C[C@@H](C(=O)O)N(C(=O)/C=C\c2ccccc2)C3)cc1C has a reported IC50 of 2.2

# IC50 of COc1ccc(Cn2cnc3c2C[C@@H](C(=O)O)N(C(=O)C(c2ccccc2)c2ccccc2)C3)cc1 = 0.29

compound COc1ccc(C(C(=O)N2Cc3ncn(Cc4ccccc4)c3CC2C(=O)O)c2ccc(OC)cc2)cc1 (stereo not given) , IC50 observed: 0.61

IC50 reading for COc1ccc(Cn2cnc3c2C[C@@H](C(=O)O)N(C(=O)C(C)(c2ccccc2)c2ccccc2)C3)cc1C : 9.5
